target: human FPR2 (Homo sapiens, UniProt P25090); test: FPR2 cyclic adenosine monophosphate (cAMP) assay; details: CHO cells overexpressing human FPR2; forskolin 5 μM; inhibition of cAMP production; HTRF; read-out: hFPR2 cAMP2 EC50
Sequence (P25090 whole entry): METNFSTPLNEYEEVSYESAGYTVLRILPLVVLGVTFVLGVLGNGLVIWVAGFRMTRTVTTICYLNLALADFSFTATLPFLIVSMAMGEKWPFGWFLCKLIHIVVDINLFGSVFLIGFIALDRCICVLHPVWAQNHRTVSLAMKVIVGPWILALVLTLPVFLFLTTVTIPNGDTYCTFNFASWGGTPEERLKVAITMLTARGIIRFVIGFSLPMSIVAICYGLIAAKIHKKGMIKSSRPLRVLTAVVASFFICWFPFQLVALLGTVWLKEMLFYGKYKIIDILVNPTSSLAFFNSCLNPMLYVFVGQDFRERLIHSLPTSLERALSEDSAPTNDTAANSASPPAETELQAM
pEC50: −log10 of the molar value.
measure_name: pEC50

COc1cc(F)c(-c2c(NC(=O)c3ccc(OC(F)F)cc3)c(=O)n(-c3cccc(N4CCCCC4)n3)n2C)c(F)c1 [Example 80] :: 8.70

P = COC(=O)c1cc(Cl)cc(-n2c(=O)c(NC(=O)c3ccc(OC(F)F)cc3)c(-c3c(F)cc(OC)cc3F)n2C)c1 [Example 120]
Q = COc1cc(OCC2CCS(=O)(=O)CC2)nc(-n2c(=O)c(NC(=O)c3ccc(OC(F)F)cc3)c(-c3c(F)cc(OC)cc3F)n2C)c1 [Example 337]
INPUT: Consider P and Q . Which of these has its pEC50 at a higher number? Kindly give the label for the entry you pick.
OUTPUT: P

###

Target: human FPR1 (Homo sapiens, UniProt P21462)
Sequence (P21462 1-350): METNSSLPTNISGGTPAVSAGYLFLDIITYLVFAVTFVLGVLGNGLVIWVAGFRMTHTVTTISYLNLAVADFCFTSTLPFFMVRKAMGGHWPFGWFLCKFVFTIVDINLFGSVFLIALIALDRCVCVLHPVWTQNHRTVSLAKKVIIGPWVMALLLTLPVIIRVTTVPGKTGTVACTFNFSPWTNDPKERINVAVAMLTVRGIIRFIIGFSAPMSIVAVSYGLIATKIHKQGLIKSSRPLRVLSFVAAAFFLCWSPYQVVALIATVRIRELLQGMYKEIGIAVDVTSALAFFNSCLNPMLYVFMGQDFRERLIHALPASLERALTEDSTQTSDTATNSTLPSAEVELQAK
Assay: FPR1 cyclic adenosine monophosphate (cAMP) assay
Details: CHO cells overexpressing human FPR1; forskolin 10 μM; inhibition of cAMP production; HTRF; read-out: hFPR1 cAMP2 EC50
measure_name: EC50 (nM)

I = COc1cc(F)c(-c2c(NC(=O)c3ccc(OC(F)F)cc3)c(=O)n(-c3cccc(OCC(C)(C)O)n3)n2C)c(F)c1
II = COc1ccc(-c2c(NC(=O)c3ccc(OC(F)F)cc3)c(=O)n(-c3ncccc3C(F)(F)F)n2C)c(F)c1
III = COc1cc(F)c(-c2c(NC(=O)c3ccc(OC(F)F)cc3)c(=O)n(-c3nc(N4CCNC(=O)C4)ccc3C(F)(F)F)n2C)c(F)c1
IV = COc1cc(F)c(-c2c(NC(=O)c3ccc(OC(F)F)cc3)c(=O)n(-c3cc(OC4CCOC4)cc(C)n3)n2C)c(F)c1 (stereo not drawn) [Example 321]
INPUT: Rank entries according to their EC50, from the largest number down. Write the labels, ordered according to the request.
OUTPUT: II, I, IV, III

###

target: human FPR2 (Homo sapiens); assay: FPR2 cyclic adenosine monophosphate (cAMP) assay; conditions: CHO cells overexpressing human FPR2; forskolin 5 μM; inhibition of cAMP production; HTRF; read-out: hFPR2 cAMP2 EC50
pEC50: −log10 of the molar value.
measure_name: pEC50

Some compounds with known pEC50 results, for comparison:
CCc1ccc(N2CCN(C)CC2)nc1-n1c(=O)c(NC(=O)c2ccc(OC(F)F)cc2)c(-c2c(F)cc(OC)cc2F)n1C :: 7.46
COc1cc(F)c(-c2c(NC(=O)c3ccc(OC(F)F)cc3)c(=O)n(-c3cccc(OCC(C)(C)O)n3)n2C)c(F)c1 :: 7.66
COc1ccc(-c2c(NC(=O)c3ccc(OC(F)F)cc3)c(=O)n(-c3ncccc3C(F)(F)F)n2C)cc1Cl :: 6.85

A = COc1cc(F)c(-c2c(NC(=O)c3ccc(OC(F)F)cc3)c(=O)n(-c3cccc(N(C)C)n3)n2C)c(F)c1
B = COc1cc(F)c(-c2c(NC(=O)c3ccc(OC(F)F)cc3)c(=O)n(-c3cccc(N4C[C@@H](C)N(C)[C@@H](C)C4)n3)n2C)c(F)c1
INPUT: Look at A and B . Which one has the lower recorded pEC50 number? Return value: the label identifying the chosen record.
OUTPUT: A
(A: 8.70, B: 9.00)
